Target: T1, human GFRα3 expressed with a C-terminal myc-myc-hexahistidine tag (human, UniProt O60609 32-374, biotinylated (sites not given) in ELISA format 2 and in the Octet cross-competition; not in SPR)
T1 construct: also called hGFRα3-mmh; hGFRα3-mmH
T1 sequence (O60609 other isoform, or with tags, fused parts or gaps limits assumed): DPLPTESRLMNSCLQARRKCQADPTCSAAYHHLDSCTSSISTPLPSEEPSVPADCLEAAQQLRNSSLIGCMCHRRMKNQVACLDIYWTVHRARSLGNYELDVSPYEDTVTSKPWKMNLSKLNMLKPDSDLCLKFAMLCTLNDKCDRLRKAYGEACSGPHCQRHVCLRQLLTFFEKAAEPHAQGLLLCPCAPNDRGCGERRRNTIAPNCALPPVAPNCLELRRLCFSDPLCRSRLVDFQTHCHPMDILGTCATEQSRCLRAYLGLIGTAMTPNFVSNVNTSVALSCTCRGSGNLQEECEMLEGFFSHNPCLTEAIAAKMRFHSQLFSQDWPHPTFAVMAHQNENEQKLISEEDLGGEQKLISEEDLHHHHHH
Assay: SPR, Ab captured, 25C
Description: […]
Please respond with reported Kd for every item in the list.
Give bare numbers, in nM.

H4H2357S (antibody, human IgG4, V domains shown, human IgG4 Fc (H4H)) VH: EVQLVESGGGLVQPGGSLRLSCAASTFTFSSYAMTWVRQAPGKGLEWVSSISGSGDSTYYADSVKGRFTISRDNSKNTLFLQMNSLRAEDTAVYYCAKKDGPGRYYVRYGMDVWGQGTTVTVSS VL: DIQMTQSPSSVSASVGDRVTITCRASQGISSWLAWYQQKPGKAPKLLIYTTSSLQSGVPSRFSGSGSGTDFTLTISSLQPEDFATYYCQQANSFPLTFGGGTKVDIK ... 2.42
H4H2344S (antibody, human IgG4, V domains shown, human IgG4 Fc (H4H)) VH: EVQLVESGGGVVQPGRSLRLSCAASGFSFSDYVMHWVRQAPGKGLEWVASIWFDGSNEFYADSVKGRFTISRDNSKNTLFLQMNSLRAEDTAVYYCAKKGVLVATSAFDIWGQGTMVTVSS VL: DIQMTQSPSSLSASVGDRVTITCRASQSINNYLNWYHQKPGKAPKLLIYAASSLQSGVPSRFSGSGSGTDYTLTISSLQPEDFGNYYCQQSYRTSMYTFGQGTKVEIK ... 1.31
H4H2293P (antibody, human IgG4, V domains shown, human IgG4 Fc (H4H)) VH: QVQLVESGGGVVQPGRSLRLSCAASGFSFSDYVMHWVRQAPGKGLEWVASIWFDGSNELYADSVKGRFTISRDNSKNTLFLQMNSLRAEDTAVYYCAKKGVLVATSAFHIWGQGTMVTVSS VL: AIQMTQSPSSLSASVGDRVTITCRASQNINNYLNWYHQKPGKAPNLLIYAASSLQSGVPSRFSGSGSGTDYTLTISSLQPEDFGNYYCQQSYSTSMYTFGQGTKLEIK ... 0.219
H4H2243N2 (antibody, human IgG4, V domains shown, human IgG4 Fc (H4H)) VH: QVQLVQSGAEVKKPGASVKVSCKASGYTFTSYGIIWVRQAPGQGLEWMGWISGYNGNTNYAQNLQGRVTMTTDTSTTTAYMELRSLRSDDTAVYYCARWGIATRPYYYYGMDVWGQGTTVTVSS VL: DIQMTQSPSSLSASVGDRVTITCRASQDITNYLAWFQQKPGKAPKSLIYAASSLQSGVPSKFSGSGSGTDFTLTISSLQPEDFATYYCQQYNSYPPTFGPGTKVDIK ... 2.92

Okay, next one:
Exam item: Quick check: Kd of H4H2342P (antibody, human IgG4, V domains shown, human IgG4 Fc (H4H)) VH: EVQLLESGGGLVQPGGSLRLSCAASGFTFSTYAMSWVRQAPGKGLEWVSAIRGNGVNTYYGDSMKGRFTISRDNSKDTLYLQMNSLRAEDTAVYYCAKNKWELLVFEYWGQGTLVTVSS VL: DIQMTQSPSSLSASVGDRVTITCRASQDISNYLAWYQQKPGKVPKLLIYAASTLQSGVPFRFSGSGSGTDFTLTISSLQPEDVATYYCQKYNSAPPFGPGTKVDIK ?
Marked response: 1.1
